- Test system: Acanthocheilonema viteae
- PROTOCOL DESCRIPTION: In vitro inhibition of ATP content in worms at concentration 1.0 uM
- Format: functional
# ATP content annotations
Express your answer as a number followed by its unit.

• OC1CC1Nc1cccc2cnccc12 (centres undefined) = 108 pmol/mg

O=C1CN(c2cccc3cnccc23)C2CC2O1 (centres undefined) yielded ATP content of 74.2 pmol/mg

O=[N+]([O-])c1ccc(N2CCOCC2)c2ccncc12 yielded ATP content of 39.1 pmol/mg

Clc1ccc2c(Nc3ccc(N4CCOCC4)c4ccncc34)ccnc2c1 yielded ATP content of 37.9 pmol/mg

====

- System: Acanthocheilonema viteae
- PROTOCOL DESCRIPTION: In vitro inhibition of Tubulin content in worms at concentration 1.0 uM
- Type: functional
PROPERTY MEASURED: Tubulin content (pmol/mg)
Give the value in pmol/mg but do not write pmol/mg after it.

Reference set, count: 2
• O=[N+]([O-])c1ccc(N2CCOCC2)c2ccncc12 = 38.5
• OC1CC1Nc1cccc2cnccc12 (centres undefined) = 70.2

O=C1CN(c2cccc3cnccc23)C2CC2O1 (centres undefined) yielded Tubulin content of 35.4

Clc1ccc2c(Nc3ccc(N4CCOCC4)c4ccncc34)ccnc2c1 yielded Tubulin content of 45.1

====

# Glucose uptake annotations
- Tested on: Acanthocheilonema viteae
- PROTOCOL DESCRIPTION: In vitro inhibition of glucose uptake by Acanthocheilonema viteae at concentration 1.0 uM
- Assay type: functional
Give the value in µM/mg but do not write µM/mg after it.

- Clc1ccc2c(Nc3ccc(N4CCOCC4)c4ccncc34)ccnc2c1: 6.26
- O=C1CN(c2cccc3cnccc23)C2CC2O1 (centres undefined): 6.09
- O=[N+]([O-])c1ccc(N2CCOCC2)c2ccncc12: 6.15

# context switch: different compound, same Glucose uptake
OC1CC1Nc1cccc2cnccc12 (centres undefined) yielded Glucose uptake of 6.67
